test system: Prostaglandin D2 receptor 2 (Homo sapiens)
Sequence (Q9Y5Y4 whole entry): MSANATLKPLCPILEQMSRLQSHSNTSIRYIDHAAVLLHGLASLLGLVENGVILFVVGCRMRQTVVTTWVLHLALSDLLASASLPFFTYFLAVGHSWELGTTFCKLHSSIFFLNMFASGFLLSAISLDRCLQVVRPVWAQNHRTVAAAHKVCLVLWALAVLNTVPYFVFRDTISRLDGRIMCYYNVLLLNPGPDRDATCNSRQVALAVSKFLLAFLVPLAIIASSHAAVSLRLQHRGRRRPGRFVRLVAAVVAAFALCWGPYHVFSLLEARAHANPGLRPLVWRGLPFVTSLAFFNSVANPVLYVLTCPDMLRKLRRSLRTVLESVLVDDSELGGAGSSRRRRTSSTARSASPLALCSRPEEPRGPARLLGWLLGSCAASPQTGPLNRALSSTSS
measurement notes: Displacement of [3H]PGD2 from human CRTH2 expressed in chinese hamster CHO cells by liquid scintillation counting
pKi: −log10 of the molar value.
Classify by measured pKi: Yes if it is equal to or exceeds 8, No if it is smaller.

| molecule | group label |
| --- | --- |
| Cc1ccc(S(=O)(=O)N(C)C(C)C)cc1C#Cc1cc(Cl)ccc1OCC(=O)O | Yes |
| COC1c2ccc(C#Cc3cc(Cl)ccc3OCC(=O)O)cc2S(=O)(=O)C1(C)C (stereo not given) | No |
| O=C(O)COc1ccc(Cl)cc1C#Cc1cccc(S(=O)(=O)CCCO)c1 | No |
| CCCS(=O)(=O)c1cccc(C#Cc2cc(-c3sc(C)nc3C)ccc2OCC(=O)O)c1 | No |

----------
measurement notes: Percentage unbound in rat plasma
Format: ADME, cell-free
reported metric: fraction unbound

| structure smiles | modifier sign | measurement |
| --- | --- | --- |
| Cc1ccc(S(=O)(=O)N(C)C)cc1C#Cc1cc(Cl)ccc1OCC(=O)O | = | 0.004 |
| CN(C)S(=O)(=O)c1cncc(C#Cc2cc(Cl)ccc2OCC(=O)O)c1 | = | 0.057 |
| Cc1ccc(S(=O)(=O)NC(C)C)cc1C#Cc1cc(Cl)ccc1OCC(=O)O | = | 0.004 |
| CN(C)S(=O)(=O)c1ccc(F)c(C#Cc2cc(Cl)ccc2OCC(=O)O)c1 | = | 0.007 |
| CS(=O)(=O)c1ccc(F)c(C#Cc2cc(Cl)ccc2OCC(=O)O)c1 | = | 0.011 |
| CC(C)c1ccc(S(C)(=O)=O)cc1C#Cc1cc(Cl)ccc1OCC(=O)O | = | 0.004 |
| COCCN(C)S(=O)(=O)c1ccc(C)c(C#Cc2cc(Cl)ccc2OCC(=O)O)c1 | = | 0.007 |
| CCCc1ccc(S(C)(=O)=O)cc1C#Cc1cc(Cl)ccc1OCC(=O)O | = | 0.002 |
| Cc1ccc(S(=O)(=O)CCCO)cc1C#Cc1cc(Cl)ccc1OCC(=O)O | = | 0.018 |
| CCCS(=O)(=O)c1ccc(Cl)c(C#Cc2cc(Cl)ccc2OCC(=O)O)c1 | = | 0.002 |
| O=C(O)COc1ccc(Cl)cc1C#Cc1cccc(Cl)c1 | < | 0.003 |
| CCNS(=O)(=O)c1ccc(C)c(C#Cc2cc(Cl)ccc2OCC(=O)O)c1 | = | 0.008 |
| Cc1ccc(S(C)(=O)=O)cc1C#Cc1cc(Cl)ccc1OCC(=O)O | = | 0.014 |

----------
test system: Prostaglandin D2 receptor (Homo sapiens, UniProt Q13258)
Sequence (Q13258 whole entry): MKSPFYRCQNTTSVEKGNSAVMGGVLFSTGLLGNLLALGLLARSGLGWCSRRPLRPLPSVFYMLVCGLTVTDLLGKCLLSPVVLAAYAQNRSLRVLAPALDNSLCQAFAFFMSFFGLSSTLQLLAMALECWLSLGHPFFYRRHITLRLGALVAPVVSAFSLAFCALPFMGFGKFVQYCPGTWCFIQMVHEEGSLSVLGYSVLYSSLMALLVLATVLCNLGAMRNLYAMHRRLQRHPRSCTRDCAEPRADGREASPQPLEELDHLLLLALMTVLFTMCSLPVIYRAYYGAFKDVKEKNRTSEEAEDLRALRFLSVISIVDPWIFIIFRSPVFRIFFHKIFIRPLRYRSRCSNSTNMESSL
measurement notes: Binding affinity to DP1
pKi: −log10 of the molar value.

| structure smiles | pKi |
| --- | --- |
| CCCS(=O)(=O)c1ccc(C)c(C#Cc2cc(Cl)ccc2OCC(=O)O)c1 | 5.80 |

----------
measurement notes: Percentage unbound in rat plasma
Format: ADME, cell-free
reported metric: fraction unbound

| structure smiles | reported metric | measurement |
| --- | --- | --- |
| CS(=O)(=O)c1ccc(Cl)c(C#Cc2cc(Cl)ccc2OCC(=O)O)c1 | fraction unbound | 0.003 |
| CCCS(=O)(=O)c1ccc(F)c(C#Cc2cc(Cl)ccc2OCC(=O)O)c1 | fraction unbound | 0.004 |
| CCCS(=O)(=O)c1ccc(C)c(C#Cc2cc(Cl)ccc2OCC(=O)O)c1 | fraction unbound | 0.004 |
| O=C(O)COc1ccc(Cl)cc1C#Cc1cccc(S(=O)(=O)CCO)c1 | fraction unbound | 0.081 |
| CCCS(=O)(=O)c1cccc(C#Cc2cc(Cl)ccc2OCC(=O)O)c1 | fraction unbound | 0.01 |

----------
measurement notes: AUC in BALB/c mouse at 5 mg/kg, po by LC/MS/MS analysis
Assay type: ADME, organism-based
Set-up: dose 5 mg/kg, route oral
details: plasma
reported metric: AUC (ng·h/mL)

| structure smiles | reported metric | measurement |
| --- | --- | --- |
| CCCS(=O)(=O)c1ccc(C)c(C#Cc2cc(Cl)ccc2OCC(=O)O)c1 | AUC | 3730 |
| CCCS(=O)(=O)c1ccc(F)c(C#Cc2cc(Cl)ccc2OCC(=O)O)c1 | AUC | 6140 |

----------
measurement notes: Half life in BALB/c mouse at 5 mg/kg, po by LC/MS/MS analysis
Assay type: ADME, organism-based
Set-up: dose 5 mg/kg, route oral
details: in vivo
Collected half-life values appear next to each entry.

| structure smiles | half-life (min) |
| --- | --- |
| CCCS(=O)(=O)c1ccc(F)c(C#Cc2cc(Cl)ccc2OCC(=O)O)c1 | 114 |
| CCCS(=O)(=O)c1ccc(C)c(C#Cc2cc(Cl)ccc2OCC(=O)O)c1 | 234 |

----------
measurement notes: Half life in BALB/c mouse at 1 mg/kg, iv and 5 mg/kg, po by LC/MS/MS analysis
Type: ADME, organism-based
details: in vivo

| structure smiles | half-life, h |
| --- | --- |
| CN(C)S(=O)(=O)c1cncc(C#Cc2cc(Cl)ccc2OCC(=O)O)c1 | 4.4 |
| CCCS(=O)(=O)c1cccc(C#Cc2cc(Cl)ccc2OCC(=O)O)c1 | 2.2 |

----------
measurement notes: Solubility of the compound at pH 7.4
Assay type: physicochemical
details: buffer

| structure smiles | solubility [µg/mL] |
| --- | --- |
| CCCS(=O)(=O)c1ccc(C)c(C#Cc2cc(Cl)ccc2OCC(=O)O)c1 | 242 |

----------
test system: Prostaglandin D2 receptor 2 (Homo sapiens, UniProt Q9Y5Y4)
measurement notes: Antagonist activity at human CRTH2 expressed in […] by cellular dielectric spectroscopy in the presence of PGD2 and 0.1% BSA
Assay type: functional, cell-based

| structure smiles | IC50 (nM) |
| --- | --- |
| O=C(O)COc1ccc(Cl)cc1C#Cc1cccc(Cl)c1 | 1200 |

----------
Listed next: entries and their corresponding pKi.
test system: Prostaglandin D2 receptor 2 (Homo sapiens, UniProt Q9Y5Y4)
measurement notes: Displacement of [3H]PGD2 from human CRTH2 expressed in chinese hamster CHO cells by liquid scintillation counting
pKi: −log10 of the molar value.

| molecule | test system | pKi |
| --- | --- | --- |
| Cc1cc[n+]([O-])cc1C#Cc1cc(Cl)ccc1OCC(=O)O | Prostaglandin D2 receptor 2 (Homo sapiens, UniProt Q9Y5Y4) | 7.77 |
| CN(C)S(=O)(=O)c1cccc(C#Cc2cc(Cl)ccc2OCC(=O)O)c1 | Prostaglandin D2 receptor 2 (Homo sapiens, UniProt Q9Y5Y4) | 7.85 |
| C[S+]([O-])c1cccc(C#Cc2cc(Cl)ccc2OCC(=O)O)c1 (stereo not given) | Prostaglandin D2 receptor 2 (Homo sapiens, UniProt Q9Y5Y4) | 8.49 |
| O=C(O)COc1ccc(Cl)cc1C#Cc1cccc(C(F)(F)F)c1 | Prostaglandin D2 receptor 2 (Homo sapiens, UniProt Q9Y5Y4) | 7.04 |
| CS(=O)(=O)c1cccc(C#Cc2cc(Cl)ccc2OCC(=O)O)c1 | Prostaglandin D2 receptor 2 (Homo sapiens, UniProt Q9Y5Y4) | 7.82 |
| Cc1ccc(S(=O)(=O)Cc2ccccc2)cc1C#Cc1cc(Cl)ccc1OCC(=O)O | Prostaglandin D2 receptor 2 (Homo sapiens, UniProt Q9Y5Y4) | 8.30 |
| CC1(C)C(O)c2ccc(C#Cc3cc(Cl)ccc3OCC(=O)O)cc2S1(=O)=O (stereo not given) | Prostaglandin D2 receptor 2 (Homo sapiens, UniProt Q9Y5Y4) | 7.48 |
| CCCC(Oc1ccc(Cl)cc1C#Cc1cc(S(=O)(=O)CCC)ccc1C)C(=O)O (stereo not given) | Prostaglandin D2 receptor 2 (Homo sapiens, UniProt Q9Y5Y4) | 7.24 |
| CCS(=O)(=O)c1ccc(C)c(C#Cc2cc(Cl)ccc2OCC(=O)O)c1 | Prostaglandin D2 receptor 2 (Homo sapiens, UniProt Q9Y5Y4) | 8.07 |
| CCCS(=O)(=O)c1cccc(C#Cc2cc(C(F)(F)F)ccc2OCC(=O)O)c1 | Prostaglandin D2 receptor 2 (Homo sapiens, UniProt Q9Y5Y4) | 8.00 |
